# IC50 annotations
biological target: UniProtKB H0VZC5

Below, 3 compounds whose answers are already recorded.
O=C(Nc1cc2c(cn1)[nH]c1ccccc12)c1ccccc1 [Example 8, N-9H-Pyrido(3,4-b)indol-3-yl benzamide]: > 100 µM
Nc1cc2c(cn1)[nH]c1ccccc12 [Example 2, 3-Amino-9H-pyrido(3,4-b)indole]: > 100 µM
O=C(Cc1ccccc1)Nc1cc2c(cn1)[nH]c1ccccc12 [Example 9]: 14 µM

The compound identified as O=C(Nc1cc2c(cn1)[nH]c1ccccc12)c1cccs1 [Example 5] registered its IC50 at > 100 µM

* * *

Target chain: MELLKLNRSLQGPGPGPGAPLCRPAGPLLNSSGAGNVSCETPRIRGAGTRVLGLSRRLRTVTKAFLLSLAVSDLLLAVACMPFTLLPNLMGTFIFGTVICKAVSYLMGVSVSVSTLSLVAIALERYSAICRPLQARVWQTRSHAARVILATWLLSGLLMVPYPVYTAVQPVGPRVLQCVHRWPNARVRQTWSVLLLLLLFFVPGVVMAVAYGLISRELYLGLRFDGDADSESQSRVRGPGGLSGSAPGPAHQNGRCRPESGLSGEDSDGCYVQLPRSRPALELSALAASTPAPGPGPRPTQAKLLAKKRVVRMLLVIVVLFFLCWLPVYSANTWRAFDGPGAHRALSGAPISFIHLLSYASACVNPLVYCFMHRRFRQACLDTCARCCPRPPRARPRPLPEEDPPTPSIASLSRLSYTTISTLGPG
pIC50: −log10 of the molar value.
# pIC50 annotations

O=C(Nc1cc2c(cn1)[nH]c1ccccc12)c1ccccc1 [Example 8, N-9H-Pyrido(3,4-b)indol-3-yl benzamide]: 3.65
O=C(Nc1cc2c(cn1)[nH]c1ccccc12)c1cccs1: ~3.89

The compound identified as Nc1cc2c(cn1)[nH]c1ccccc12 registered its pIC50 at < 4.00

The reported measurements were obtained from patent US5223509A.
